molecular target: Cholinesterase (Equus caballus); experiment: Inhibition of equine serum BuChE using butyrylthiocholine chloride as substrate preincubated for 15 mins followed by substrate addition and measured after 4 mins by Ellman's method
Sequence (P81908 whole entry): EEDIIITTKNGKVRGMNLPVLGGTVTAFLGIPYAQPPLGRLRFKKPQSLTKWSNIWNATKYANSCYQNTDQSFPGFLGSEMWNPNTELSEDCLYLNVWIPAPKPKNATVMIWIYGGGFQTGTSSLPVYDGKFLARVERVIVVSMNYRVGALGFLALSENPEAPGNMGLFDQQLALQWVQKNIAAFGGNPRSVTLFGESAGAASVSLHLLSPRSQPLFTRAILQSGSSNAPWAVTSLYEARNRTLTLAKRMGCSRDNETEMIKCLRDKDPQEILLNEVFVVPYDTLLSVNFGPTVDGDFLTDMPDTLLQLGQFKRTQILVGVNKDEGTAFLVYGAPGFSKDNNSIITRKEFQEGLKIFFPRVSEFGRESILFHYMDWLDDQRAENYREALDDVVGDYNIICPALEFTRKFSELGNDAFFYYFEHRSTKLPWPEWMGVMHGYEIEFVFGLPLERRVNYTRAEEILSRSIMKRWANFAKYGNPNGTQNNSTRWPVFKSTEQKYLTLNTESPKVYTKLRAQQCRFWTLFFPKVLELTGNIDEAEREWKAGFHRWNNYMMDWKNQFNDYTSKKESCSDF
ATTRIBUTE MEASURED: pIC50
Give only the number. pIC50 is defined as minus log10 of concentration in molar units.

input: Which pIC50 value is on record for COc1cc(/C=N/NC(=O)c2ccc(O)cc2)ccc1OC(=O)N(C)C ?
output: 6.03

input: Which pIC50 value is on record for COc1ccc(C(=O)N/N=C/c2ccccc2OC(=O)N(C)C)cc1OC ?
output: 6.51

input: Which pIC50 value is on record for CN(C)C(=O)Oc1ccc(/C=N/NC(=O)c2cccc(O)c2)cc1 ?
output: 4.53

input: Which pIC50 value is on record for COc1cc(/C=N/NC(=O)c2cccc(O)c2)ccc1OC(=O)N(C)C ?
output: 5.12
